Reference source: paper PMC12040169

- ASSAY_REMARKS: in vitro
- ASSAY_CONTEXT: human, hela cells, % viability
Binarize viability at 28.5 h, 10 µM at 90%; below is criterion met, at or above is criterion not met.

Below, 3 molecules whose answers are already recorded.
- MOLECULE: "CS(=O)(=O)c1ccc(CN2CCOC3(CCN(C(=O)c4ccc5ccccc5c4)CC3)C2)cc1 [CBK161122A]"
  GROUP: "criterion not met"
- MOLECULE: "CCOCCC(=O)N/N=C(/C)c1ccc(Cl)s1"
  GROUP: "criterion not met"
- MOLECULE: "OC1CCn2c1nc1cc(Cl)ccc12 (centres unmarked)"
  GROUP: "criterion met"

Read the next record carefully.
Ask: Identify whether the molecule O=C(CCC(=O)c1ccc2c(c1)OCCO2)OCC(=O)c1ccc(F)cc1 records viability at 28.5 h, 10 µM below 90%.
Reply: criterion not met
